# Test system: Escherichia coli TOP10
# assay-text: shrunken log2 fold change of peptide-encoding DNA abundance (4.5 h post-induction vs induction); higher = less antimicrobial activity (less host growth inhibition)
# conditions: time post-induction: 4.5 h; library: site-saturation at positions 5, 18, 19, 20
property-label: shrunken log2 fold change
Could you respond with only the numeric value?

- RRIRVRPPRLPRPRPRPAEEPRP: 0.113
- RRIRYRPPRLPRPRPRPWRQPRP: -0.00152

Query :: Quick one: shrunken log2 fold change for RRIRSRPPRLPRPRPRPEGDPRP ?
Result :: 0.203

Query :: What about RRIRERPPRLPRPRPRPLFYPRP ?
Result :: -0.513

Query :: What about RRIRGRPPRLPRPRPRPTDCPRP ?
Result :: 0.275

Query :: What about RRIRRRPPRLPRPRPRPFRVPRP ?
Result :: 0.12

Query :: What about RRIRYRPPRLPRPRPRPNHIPRP ?
Result :: -1.27

Query :: What about RRIRGRPPRLPRPRPRPNAEPRP ?
Result :: 2.89

Query :: What about RRIRCRPPRLPRPRPRPNPGPRP ?
Result :: -0.0632

Query :: What about RRIRLRPPRLPRPRPRPQESPRP ?
Result :: 0.133

Query :: What about RRIRGRPPRLPRPRPRPQFRPRP ?
Result :: 0.0341

Query :: What about RRIRCRPPRLPRPRPRPTLTPRP ?
Result :: -0.14

Query :: What about RRIRPRPPRLPRPRPRPRQQPRP ?
Result :: 0.13

Query :: What about RRIRVRPPRLPRPRPRPPGCPRP ?
Result :: 0.232

Query :: What about RRIRGRPPRLPRPRPRPEDCPRP ?
Result :: 0.874

====

# Test system: Escherichia coli TOP10
# assay-text: shrunken log2 fold change of peptide-encoding DNA abundance (4.5 h post-induction vs induction); higher = less antimicrobial activity (less host growth inhibition)
# conditions: time post-induction: 4.5 h; library: site-saturation at positions 5, 18, 19, 20
property-label: shrunken log2 fold change
Could you respond with only the numeric value?

- RRIRTRPPRLPRPRPRPTPFPRP: 0.356

Below: the item to evaluate.
Query :: Quick one: shrunken log2 fold change for RRIRLRPPRLPRPRPRPMIDPRP ?
Result :: -0.0169

====

We begin with a simple list: items and their reported shrunken log2 fold change.
# Test system: Escherichia coli TOP10
# assay-text: shrunken log2 fold change of peptide-encoding DNA abundance (4.5 h post-induction vs induction); higher = less antimicrobial activity (less host growth inhibition)
# conditions: time post-induction: 4.5 h; library: site-saturation at positions 5, 18, 19, 20
Could you respond with only the numeric value?

Here's what some known entries look like.
* RRIRVRPPRLPRPRPRPVLQPRP | 0.164
* RRIRQRPPRLPRPRPRPKSDPRP | -0.2
* RRIRARPPRLPRPRPRPKKSPRP | 1.2
* RRIRTRPPRLPRPRPRPFIHPRP | -0.0383
* RRIRDRPPRLPRPRPRPYNDPRP | -0.307
* RRIRFRPPRLPRPRPRPGHKPRP | 0.0531

Query :: Quick one: shrunken log2 fold change for RRIRLRPPRLPRPRPRPSVEPRP ?
Result :: 0.0961

Query :: What about RRIRCRPPRLPRPRPRPPAYPRP ?
Result :: 0.176

Query :: What about RRIRGRPPRLPRPRPRPQAPPRP ?
Result :: 0.662

====

# Tested on: Escherichia coli TOP10
# assay-text: shrunken log2 fold change of peptide-encoding DNA abundance (4.5 h post-induction vs induction); higher = less antimicrobial activity (less host growth inhibition)
# conditions: time post-induction: 4.5 h; library: site-saturation at positions 5, 18, 19, 20
property-label: shrunken log2 fold change
Could you respond with only the numeric value?

• RRIRMRPPRLPRPRPRPTAWPRP = 1.4

Query :: Quick one: shrunken log2 fold change for RRIRTRPPRLPRPRPRPDIRPRP ?
Result :: 0.0296

Query :: What about RRIRARPPRLPRPRPRPGKSPRP ?
Result :: 0.294

Query :: What about RRIRTRPPRLPRPRPRPAQSPRP ?
Result :: 0.343

Query :: What about RRIRPRPPRLPRPRPRPQEDPRP ?
Result :: -0.0602

Query :: What about RRIRFRPPRLPRPRPRPYPTPRP ?
Result :: -0.324

Query :: What about RRIRVRPPRLPRPRPRPLKKPRP ?
Result :: 0.181

Query :: What about RRIRVRPPRLPRPRPRPMADPRP ?
Result :: -0.0473

Query :: What about RRIRQRPPRLPRPRPRPVMMPRP ?
Result :: -0.335

Query :: What about RRIRPRPPRLPRPRPRPVALPRP ?
Result :: 0.0375

====

# Test system: Escherichia coli TOP10
# assay-text: shrunken log2 fold change of peptide-encoding DNA abundance (4.5 h post-induction vs induction); higher = less antimicrobial activity (less host growth inhibition)
# conditions: time post-induction: 4.5 h; library: site-saturation at positions 5, 18, 19, 20
We begin with a simple list: items and their reported shrunken log2 fold change.
Could you respond with only the numeric value?

* RRIRGRPPRLPRPRPRPSHEPRP | -0.418

Query :: Param readout = shrunken log2 fold change; param system = Escherichia coli TOP10; param query = RRIRTRPPRLPRPRPRPNEKPRP ; response: value
Result :: -0.144

Query :: What about RRIRTRPPRLPRPRPRPFMVPRP ?
Result :: -0.291

====

# System: Escherichia coli TOP10
# assay-text: shrunken log2 fold change of peptide-encoding DNA abundance (4.5 h post-induction vs induction); higher = less antimicrobial activity (less host growth inhibition)
# conditions: time post-induction: 4.5 h; library: site-saturation at positions 5, 18, 19, 20
We begin with a simple list: items and their reported shrunken log2 fold change.
Could you respond with only the numeric value?

* RRIRLRPPRLPRPRPRPGDTPRP | -0.238
* RRIRKRPPRLPRPRPRPKFAPRP | 0.764
* RRIRCRPPRLPRPRPRPRACPRP | 0.24
* RRIRARPPRLPRPRPRPDICPRP | 0.307
* RRIRNRPPRLPRPRPRPLVWPRP | 0.124
* RRIRFRPPRLPRPRPRPTLFPRP | 0.243
* RRIRVRPPRLPRPRPRPAVRPRP | 0.123
* RRIRMRPPRLPRPRPRPTHLPRP | 0.396
* RRIRHRPPRLPRPRPRPMLLPRP | 0.0408
* RRIRQRPPRLPRPRPRPSVEPRP | 0.218

Query :: Param readout = shrunken log2 fold change; param system = Escherichia coli TOP10; param query = RRIRFRPPRLPRPRPRPCTAPRP ; response: value
Result :: -0.487

Query :: What about RRIRQRPPRLPRPRPRPRFPPRP ?
Result :: 0.0593

Query :: What about RRIRNRPPRLPRPRPRPTRRPRP ?
Result :: 0.805

Query :: What about RRIRWRPPRLPRPRPRPHGVPRP ?
Result :: 0.0746

Query :: What about RRIRWRPPRLPRPRPRPLPTPRP ?
Result :: 0.463

====

# Test system: Escherichia coli TOP10
# assay-text: shrunken log2 fold change of peptide-encoding DNA abundance (4.5 h post-induction vs induction); higher = less antimicrobial activity (less host growth inhibition)
# conditions: time post-induction: 4.5 h; library: site-saturation at positions 5, 18, 19, 20
We begin with a simple list: items and their reported shrunken log2 fold change.
Could you respond with only the numeric value?

Here's what some known entries look like.
- RRIRKRPPRLPRPRPRPGANPRP: 0.179
- RRIRARPPRLPRPRPRPRLSPRP: 0.358
- RRIRHRPPRLPRPRPRPPIDPRP: 0.065
- RRIRGRPPRLPRPRPRPCGPPRP: 1.29
- RRIRSRPPRLPRPRPRPHMSPRP: -0.223

Query :: Quick one: shrunken log2 fold change for RRIRSRPPRLPRPRPRPISVPRP ?
Result :: -0.151

Query :: What about RRIRHRPPRLPRPRPRPWSIPRP ?
Result :: 0.0612

====

# Test system: Escherichia coli TOP10;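 also: peptides expressed intracellularly from a pBAD plasmid library in pooled LB shake-flask culture, induced with 0.3% L-arabinose, DNA abundance read by NGS, three biological replicates, DESeq2 with apeglm shrinkage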
# assay-text: shrunken log2 fold change of peptide-encoding DNA abundance (4.5 h post-induction vs induction); higher = less antimicrobial activity (less host growth inhibition)
# conditions: time post-induction: 4.5 h; library: site-saturation at positions 5, 18, 19, 20
property-label: shrunken log2 fold change
Could you respond with only the numeric value?

Here's what some known entries look like.
• RRIRYRPPRLPRPRPRPDWRPRP = 0.22
• RRIRKRPPRLPRPRPRPRRGPRP = 0.799
• RRIRYRPPRLPRPRPRPWWMPRP = -0.452
• RRIRRRPPRLPRPRPRPCYVPRP = -0.583
• RRIRCRPPRLPRPRPRPHLNPRP = -0.627

Query :: Quick one: shrunken log2 fold change for RRIRGRPPRLPRPRPRPHSTPRP ?
Result :: 0.517

Query :: What about RRIRARPPRLPRPRPRPQYHPRP ?
Result :: -0.398

Query :: What about RRIRYRPPRLPRPRPRPNTPPRP ?
Result :: -0.179

Query :: What about RRIRWRPPRLPRPRPRPLTNPRP ?
Result :: -0.114

Query :: What about RRIRVRPPRLPRPRPRPDFTPRP ?
Result :: -0.282

Values were extracted from the supplement of paper PMC9112550.
